Molecular target: T1, 4H2165-AA
T1 chain: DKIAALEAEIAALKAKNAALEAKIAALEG
Experiment: two-hybrid library CCmax;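 also: natural log of median RNA to DNA barcode read ratio; higher means stronger binding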
Conditions: mean of both orientations

[
  {
    "BINDER": "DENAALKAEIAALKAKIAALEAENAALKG [4H1636-AA]",
    "interaction score": -1.82
  },
  {
    "BINDER": "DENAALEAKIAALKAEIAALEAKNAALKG [4H1352-AA]",
    "interaction score": -1.51
  },
  {
    "BINDER": "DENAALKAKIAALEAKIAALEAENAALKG [4H1828-AA]",
    "interaction score": -1.37
  },
  {
    "BINDER": "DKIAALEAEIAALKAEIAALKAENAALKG [4H2124-AA]",
    "interaction score": -1.36
  },
  {
    "BINDER": "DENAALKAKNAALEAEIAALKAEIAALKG [4H1930-AA]",
    "interaction score": -1.35
  }
]
